Source listed as patent CN111978395A.

Give measured EC50(μg/mL), 阻断假病毒感染 (GFP阳性细胞) for each item. Keep answers brief.
- test-system: SARS-CoV2病毒的囊膜蛋白SPIKE (SARS-CoV2, UniProt P0DTC2 14-1273)
- assay-protocol: cell-based or functional assay
Express the result in µg/mL but write the number alone.

Form field: reported EC50(μg/mL), 阻断假病毒感染 (GFP阳性细胞) of DK7 (antibody, V domains shown) VH: QVQLQQPGAELVKPGASVKMSCKASGYTFTSYSMHWVKQTPGQGLEWIGAIYPGNGDTSYNQKFKGKATLTADKSSSTAYMQLSSLTSEDSAVYYCARDYHYDGYYVTLDYWGQGTTLTVSS VL: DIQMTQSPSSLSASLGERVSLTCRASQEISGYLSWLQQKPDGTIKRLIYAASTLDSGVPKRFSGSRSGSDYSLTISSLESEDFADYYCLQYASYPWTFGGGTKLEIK
0.071

Another binder to look at: DK5 (antibody, V domains shown) VH: QVQLQQPGAELVKPGASVKMSCKASGYTFTSYSMHWVKQTPGQGLEWIGAIYPGNGDTSYNQKFKGKATLTADKSSSTAYMQLSSLTSEDSAVYYCARDYHYDGYYVTLDYWGQGTTLTVSS VL: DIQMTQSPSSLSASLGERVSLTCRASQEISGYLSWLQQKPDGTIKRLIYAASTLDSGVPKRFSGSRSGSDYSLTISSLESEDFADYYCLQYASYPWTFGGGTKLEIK
0.015

Another binder to look at: DK2 (antibody, V domains shown) VH: QVQLQQPGAELVKPGASVKMSCKASGYTFISYSMHWVKQTPGQGLEWIGAIYPGNGDTSYTQKFKGKATLTADKSSTTAYMQLSSLTSEDSAVYYCARDHGNYVLDYWGQGTTLTVSS VL: DIVMTQSHKFMSTSVGDRVSITCKASQDVGTAVAWYQQKPGQSPKLLIYWASTRHTGVPDRFTGSGSGTDFTLTISNVQSEDLADYFCQQYSSYPWTFGGGTKLEIK
0.012

Another binder to look at: DK15 (antibody, V domains shown) VH: QVQLQQPGAEFVMPGASVKMSCKASGYTFTDYWMHWVKQRPGQGLEWIGAIDTSDTYTRYNQKFKDKATLTVDESSSTAYMQLSSLTSEDSAVYYCARFLYYYGNPTFDYWGQGTTLTVSS VL: DVQITQSPSYLAASPGETITINCRASKSISKYLAWYQEKPGKTNKLLIYSGSTLQSGIPSRFSGSGSGTDFTLTISSLEPEDFAMYYCQQHNEYPLTFGAGTKLELK
0.191

Another binder to look at: DK6 (antibody, V domains shown) VH: QVQLQQPGTELVKPGASVKMSCKASGYTFTSYSIHWVKQTPGQGLEWIGAIYPGNGDTSYNQKFKGKATLTADKSSSTAYMQLSSLTSEDSAVYYCARDYHYDGYYVTLDYWGQGTTLTVSS VL: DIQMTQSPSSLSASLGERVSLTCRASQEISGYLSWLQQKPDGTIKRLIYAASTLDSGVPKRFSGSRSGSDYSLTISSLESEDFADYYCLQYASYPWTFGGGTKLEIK
0.071

Another binder to look at: DK10 (antibody, V domains shown) VH: QVQLQQPGAELVKPGASVKMSCKASGYTFTSYSMHWVKQTPGQGLEWIGAIYPGNGDTSYTQKFKGKATLTADKSSSTAYMQLNSLTSEDSAVYYCARDYHYDGYYVTLDYWGQGTTLTVSS VL: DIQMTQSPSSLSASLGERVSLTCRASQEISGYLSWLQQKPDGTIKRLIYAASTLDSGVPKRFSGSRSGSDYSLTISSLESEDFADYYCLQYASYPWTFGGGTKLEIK
0.245

Another binder to look at: DK14 (antibody, V domains shown) VH: QVQLQQPGAELVKPGASVKLSCKASGYTFISYWMHWVKQRPGQGLEWIGEIDPSDSYTNSNQKFKGKATLTVDKSSSTAYMQLSSLTSEDSAVYYCARSELWAMDYWGQGTSVTVSS VL: DIVMTQAAFSNPVTLGTSASISCRSSKSLLHSHGITYLYWYLQKPGQSPQLLIYQMSNLASGVPDRFSSSGSGTDFTLRISRVEAEDVGVYYCAQNLELPWTFGGGTKLEIR
0.062

Another binder to look at: DK11 (antibody, V domains shown) VH: EVQLQQSGPELVKPGASVKISCKASGYSFTGYFMNWVKQSHGKSLEWIGRINPYNGDTFYNQKFKGKATLTVDKSSSTAHMELLSLTSEDSAVYYCGRGYLDYWGQGTTLTVSS VL: DIVMTQSHKFMSTSVGDRVSITCKASQDVSTAVAWYQQKPGQSPKLLIFSASYRYTGVPDRFTGSGSGTDFTFTISSVQAEDLAVYYCQEHYSNPYTFGGGTKLEIK
0.051
